FYI, the data here is from PubChem BioAssay (NCI).

# Tested on: OVCAR-5 ovarian
# protocol.description: NCI-60 one-dose screen, 48 h (100 = growth as untreated, 0 = no growth, -100 = all killed)
# protocol.conditions: 10 µM unless noted
# Protocol: Growth inhibition of the OVCAR-5 human tumor cell line is measured as a screen for anti-cancer activity. Cells are grown in 96 well plates and exposed to the test compound for 48 hours. Compounds are tested at a single concentration, which is 10^-5 M for most compounds. The reported endpoint is percent growth (GI% or GIPRCNT), where numbers from 0 - 100% represent growth inhibition, and numbers from -100% - 0 represent cell death. For example, a value of 40 represents 60% growth inhibition. […]
This is part of a sample that, as a whole, favours compounds with a hit. Of some 83,000 tested, about 20% had one in any assay. Active and inactive are the calls of the source. Rule for the calls: active = growth percent below 10; inactive = the rest.
measured.attribute: growth

Read off the recorded growth for CCOc1ccccc1[C@H]1C(C(=O)c2ccc(Cl)cc2)C2(N[C@@H]1c1ccccc1)C(=O)Nc1ccc(Br)cc12 (some centres undefined)
-20.8% (active)

For the molecule "COc1ccc2[nH]c(O)c(N=Nc3nc(-c4ccc(Cl)cc4)cs3)c2c1" , give its measured growth value.
10.3% (inactive)

Identify measured growth corresponding to "COc1ccc2[nH]cc(-c3cc(N)n4nc(-c5c[nH]c6ccccc56)cc4n3)c2c1"
7.37% (active)

Recall and state the measured growth for "Cc1nn(-c2ccccc2)c2ncn(CC(=O)N/N=C/c3ccccc3O)c(=O)c12" .
63.2% (inactive)

---

# Test system: HS 578T breast
# protocol.description: NCI-60 one-dose screen, 48 h (100 = growth as untreated, 0 = no growth, -100 = all killed)
# protocol.conditions: 10 µM unless noted
About 83,000 compounds went through this panel and 20% of them were active in at least one assay; those are over-represented in the sample as a whole.
Doc: threshold 40% (exclusive). Items with growth beneath it return y; others return n.

The following compounds have reported results that may help.
Cc1ccc(C(=O)Nc2ccc(-n3ccnc3)c(C(F)(F)F)c2)cc1C#Cc1cnc2cccnn12 y
Cn1cc(-c2cc3nc(-c4cn(C)c5ncccc45)cc(N)n3n2)c2cc(F)ccc21 n
Cc1nn(-c2ccccc2)c2nc(C)n(CC(=O)N/N=C/c3cccc([N+](=O)[O-])c3)c(=O)c12 n

For this compound, is growth lower than 40%? "N#C/C(=C/c1ccc([N+](=O)[O-])cc1)c1nnc(NC(=O)c2ccc(-n3c(=O)[nH]c4ccccc4c3=O)cc2)s1"
n

Regarding "COc1ccc(-c2cc(-c3ccccc3)c(C#N)c(=O)[nH]2)cc1S(N)(=O)=O" , kindly confirm whether its growth is beneath 40%.
n

In plain terms, does "COC(=O)c1cc(C(=O)C(F)(F)F)n2c3ccccc3c3ccccc3c12" come in under 40% for growth?
n

Here's an entry: "NS(=O)(=O)c1cccc(Nc2nc(SCC(=O)c3ccc(F)cc3)nc3ccccc23)c1" . Is its growth below 40%?
y

In plain terms, does "O=C(CSc1nc2sc3c(c2c(=O)n1-c1ccc(Cl)cc1)CCCC3)NNC(=O)c1ccc(F)cc1" come in under 40% for growth?
n

Is 40% strictly greater than the compound's reported growth? compound: "Cc1ccc(Nc2nnc(-c3c[nH]c4ccccc34)o2)c(C)c1"
y

In plain terms, does "COc1cc2cc(C(=O)N3C[C@@H](CCl)c4c3cc(OC(=O)N(CCC(=O)N3CCN(C)CC3)[C@H]3CCSSC3)c3ccccc43)[nH]c2c(OC)c1OC" come in under 40% for growth?
y

Is the reported growth for "COc1ccc2[nH]c(=O)c(CSc3ccccc3Nc3nccc(-c4ccc(C(F)(F)F)cc4)n3)cc2c1" strictly below 40%?
n

---

# Test system: T-47D breast
# protocol.description: NCI-60 one-dose screen, 48 h
# protocol.conditions: 10 µM unless noted
This is part of a sample that, as a whole, favours compounds with a hit. Of some 83,000 tested, about 20% had one in any assay. Active and inactive are the calls of the source. Rule for the calls: active = growth percent below 10; inactive = the rest.
Bench note: report the call from active, inactive

Tell me the assay call for "COc1ccc2c(c1)c(-c1cc(N)n3nc(-c4c[nH]c5ccccc45)cc3n1)cn2C" please.
active

Can you look up the reported call for NS(=O)(=O)c1ccc(N2N=C(c3ccc(NC(=O)Nc4ccccc4)cc3)CC2c2ccc(Br)cc2)cc1 (configuration not stated) for me?
active

Name the outcome recorded for "Cc1ccc(C(C)C)cc1Oc1cccc(-c2c(-c3ccc(C(F)(F)F)cc3)ncn2C2CCNCC2)n1" in the assay.
active

Dear all, I need the recorded test outcome for COc1ccc2c(c1)C(Sc1ccc(Cl)cc1)c1c(nc(N)c(C#N)c1N)O2 (configuration not stated) , thank you.
inactive

Given "O=C1Nc2ccccc2/C1=C/C(=O)c1cc2ccccc2oc1=O" , state the outcome it received in this test.
inactive

# fetch the recorded call for CCC1(OC(=O)c2ccccc2SSCCOC(=O)CCCCC2SCC3NC(=O)NC32)C(=O)OCc2c1cc1n(c2=O)Cc2cc3ccccc3nc2-1 (configuration not stated) here
inactive

So what was the verdict on OC1CCC(Cn2c(C(F)(F)F)cc3c(Cl)ncnc32)CC1 (configuration not stated) in this test?
inactive

Assay outcome for "COc1ccccc1Nc1nnc(-c2c[nH]c3ccccc23)o1" : what was it?
inactive

Test call, this molecule: "Nc1cc2ccccc2c(=O)n1NC(=O)c1ccccc1"
inactive

I would be grateful if you could indicate the recorded call for "Cc1ccc(C(=O)C[n+]2cccc3c4ccccc4ccc32)cc1" .
inactive

Call for entry "O=C(/C=C1\C(=O)N(Cc2ccccc2)c2ccccc21)c1cc2ccccc2oc1=O" :
inactive

Can you look up the reported call for CCOc1ccc2[nH]c(=O)c(C(c3nnnn3CC3CCCO3)N3CCN(Cc4ccccc4)CC3)cc2c1 (configuration not stated) for me?
inactive

---

Catalogue of growth readings, one per entry.
# Tested on: SK-MEL-28 melanoma
# protocol.description: NCI-60 one-dose screen, 48 h (100 = growth as untreated, 0 = no growth, -100 = all killed)
# protocol.conditions: 10 µM unless noted
The panel holds about 83,000 compounds, 20% with a hit somewhere; the sample as a whole holds those more often.
Quick reminder: number only, in %, skip the unit.

Oc1cncc(-c2ccc3ncnc(N4CCc5cc(F)c(Cl)cc54)c3c2)c1 77.6
COc1ccc2nc(NC(=O)c3ccc(N(C)C)cc3)sc2c1 95
NNc1ncnc2sc3c(c12)CCN(Cc1ccccc1)C3 73

Continue with the next compound.
Item "COc1ccc(N=Nc2c(N)nn3c(-c4ccc(F)cc4)ccnc23)cc1" : provide growth
63.1

---

# Tested on: BT-549 breast
# protocol.description: NCI-60 one-dose screen, 48 h
# protocol.conditions: 10 µM unless noted
This is part of a sample that, as a whole, favours compounds with a hit. Of some 83,000 tested, about 20% had one in any assay. The source made the active and inactive calls. How the source made its calls: active means growth percent below 10; inactive means the rest.
Select the correct class. Options are class 1 (active), class 0 (inactive) and nothing else.

compound	category
COc1ccc(-c2nnc3c(/C=C/c4ccc(Br)cc4)nc4ccccc4n23)cc1	class 1

As a next step, examine the compound that follows.
Hello, I am checking results. What call was entered for "COc1cc(CNC(=O)C[C@H](C)CCC=C(C)C)ccc1OCc1cn(-c2ccc(Cl)c(Cl)c2)nn1" ?
class 0

---

# Tested on: HS 578T breast
# protocol.description: NCI-60 one-dose screen, 48 h (100 = growth as untreated, 0 = no growth, -100 = all killed)
# protocol.conditions: 10 µM unless noted
The panel holds about 83,000 compounds, 20% with a hit somewhere; the sample as a whole holds those more often.
Each entry below carries its reported growth.
All answers are understood in %, so give the number only.

Examples from the recorded data:
compound	result.unit	growth
O=CNc1cccc(-n2cnc3cc(-c4ccc(O)cc4)ccc32)c1	%	24.4
O=C(Nc1ccc(Br)cc1)Nc1ccc(-c2ccc3c(c2)NC(=O)/C3=C\c2ccc[nH]2)cc1	%	56

Identify measured growth associated with "C/C(=N/O)c1ccc(NC(=O)CSc2nnc(-c3ccc4nc(-c5ccc(Cl)cc5)[nH]c4c3)o2)cc1"
12.7

Look up and report measured growth for this entry: "CCCn1c(NC(=O)c2cccc(C(N)=O)c2)nc2ccc(CN3CCCCC3)cc21"
111

Supply growth value. Item: COc1c2c(cc3c1C(CCc1ccccc1)N(C)CC3)OCO2 (stereo not given)
11

---

# Tested on: SNB-75 CNS
# protocol.description: NCI-60 one-dose screen, 48 h (100 = growth as untreated, 0 = no growth, -100 = all killed)
# protocol.conditions: 10 µM unless noted
The panel holds about 83,000 compounds, 20% with a hit somewhere; the sample as a whole holds those more often. Calls of active or inactive are those of the source. The calls were made as follows: active = growth percent below 10; inactive = the rest.
Measured growth accompanies every entry in the list below.

Some molecules with recorded growth:
molecule	measured.attribute	experimental.value
FC(F)(F)c1cc2c(Cl)ncnc2n1CCC1CCOCC1	growth	-91.1% (active)
O=C(c1ccc(Cl)cc1)C1[C@H](c2ccccc2Cl)[C@@H](c2ccccc2)NC12C(=O)Nc1ccccc12 (stereo partly drawn)	growth	-4.03% (active)
Cc1ccc(Cl)cc1NC(=O)N/C(N)=N/c1nc2ccccc2s1	growth	-4.17% (active)
O=C(Cn1c(-c2ccccc2)nc2ccccc21)N=Nc1c(O)[nH]c2ccc(Br)cc12	growth	-62.4% (active)
O=C(CSc1nnc(-c2ccc(-c3nc4ccccc4[nH]3)cc2)o1)Nc1ccc(Br)cc1	growth	63.3% (inactive)
CCCCN1C(=O)/C(=C\C(=O)c2cc3ccccc3oc2=O)c2ccccc21	growth	61.6% (inactive)
N#Cc1ccc(C(=O)CSc2nc3c(c(Nc4ccc(S(N)(=O)=O)cc4)n2)CCC3)cc1	growth	8.38% (active)

Respond only with growth recorded for "O=C(/C=C1\C(=O)N(Cc2ccccc2)c2ccccc21)c1cc2ccccc2oc1=O"
88% (inactive)
